# run.description: CDK2/CycE Kinase Assay: Method 2: Recombinant fusion proteins of GST and human CDK2 and of GST and human CycE, expressed in insect cells (Sf9) and purified by Glutathion-Sepharose affinity chromatography, were purchased from ProQinase GmbH (Freiburg, Germany). As substrate for the kinase reaction biotinylated peptide biotin-Ttds-[…] (C-terminus in amid form) was used which can be purchased e.g. form the company JERINI Peptide Technologies (Berlin, Germany).For the assay 50 nl of a 100 fold concentrated solution of the test compound in DMSO was pipetted into a black low volume 384 well microtiter plate (Greiner Bio-One, Frickenhausen, Germany), 2 ul of a solution of CDK2/CycE in aqueous assay buffer [50 mM Tris/HCl pH 8.0, 10 mM MgCl2, 1.0 mM dithiothreitol, 0.1 mM sodium ortho-vanadate, 0.01% (v/v) Nonidet-P40 (Sigma)] were added and the mixture was incubated for 15 min at 22° C. to allow pre-binding of the test compounds to the enzyme before the start of the kinase reaction. […] The concentration of CDK2/CycE was adjusted depending of the activity of the enzyme lot and was chosen appropriate to have the assay in the linear range, typical concentrations were in the range of 130 ng/ml. The reaction was stopped by the addition of 5 ul of a solution of TR-FRET detection reagents (0.2 uM streptavidine-XL665 [Cisbio Bioassays, Codolet, France] and 1 nM anti-RB(pSer807/pSer811)-antibody from BD Pharmingen [#558389] and 1.2 nM LANCE EU-W1024 labeled anti-mouse IgG antibody [Perkin-Elmer, product no. AD0077]) in an aqueous EDTA-solution (100 mM EDTA, 0.2% (w/v) bovine serum albumin in 100 mM HEPES/NaOH pH 7.0).
measured.metric: pIC50
Scale note: pIC50 = -log10(concentration in M).

Exam item: # return recorded pIC50 for entry C[S@@](=N)(=O)Cc1cc(Nc2ncc(F)c(-c3ccc(F)cc3F)n2)cc(C(F)(F)F)c1
Marked response: 6.11

Kindly consider the entry below.
Exam item: # return recorded pIC50 for entry C[S@](=N)(=O)Cc1cc(Nc2ncc(F)c(-c3ccc(F)cc3F)n2)cc(C(F)(F)F)c1
Marked response: 6.20
